Experimental System: T1, human TNFR1 on HeLa cells (human, UniProt P19438 30-455)
T1 sequence (looked up): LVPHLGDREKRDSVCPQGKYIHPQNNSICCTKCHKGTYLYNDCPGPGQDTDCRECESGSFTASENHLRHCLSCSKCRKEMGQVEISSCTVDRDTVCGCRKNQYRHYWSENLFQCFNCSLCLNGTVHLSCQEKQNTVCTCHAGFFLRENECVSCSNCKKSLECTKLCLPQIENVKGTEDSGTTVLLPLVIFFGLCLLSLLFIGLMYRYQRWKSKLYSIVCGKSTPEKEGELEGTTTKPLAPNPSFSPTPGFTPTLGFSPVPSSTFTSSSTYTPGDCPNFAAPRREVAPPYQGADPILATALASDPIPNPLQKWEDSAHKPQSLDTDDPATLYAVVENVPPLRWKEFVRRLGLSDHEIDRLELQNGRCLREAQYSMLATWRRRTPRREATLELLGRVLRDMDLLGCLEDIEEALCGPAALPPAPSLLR
Experiment: cell-based or functional assay
Measured Metric: HeLa IL-8 Cell Assay, Activity (IC50) (nM)

TAR2h-44 (other, anti-human TNFR1 dAb) EVQLLESGGGLVQPGGSLRLSCAASGFTFLQYPMVWVRQAPGKGLEWVSSILAPGGPTYYADSVKGRFTISRDNSKNSLYLQMNSLRAEDTAVYYCAKHPTHTPHPNFDYWGQGTLVTVSS | 300
TAR2h-10 (other, anti-human TNFR1 dAb; tied to the entry under the name TAR2-10; also called TAR2-10) EVQLLESGGGLVQPGGSLRLSCAASGFTFEWYWMGWVRQAPGKGLEWVSAISGSGGSTYYADSVKGRFTISRDNSKNTLYLQMNSLRAEDTAVYYCAKVKLGGGPNFDYWGQGTLVTVSS | 50
TAR2h-14 (other, anti-human TNFR1 dAb) EVQLLESGGGLVQPGGSLRLSCAASGFTFDQYDMSWVRQAPGKGLEWVSLIDPSGGHTYYADSVKGRFTISRNNSKNTLYLQMNSLRAEDTAVYYCAKPVFSDWPAVEFDYWGQGTLVTVSS | 300

[1] TAR2h-13 (other) EVQLLESGGGLVQPGGSLRLSCAASGFTFPADEMYWVRQAPGKGLEWVSSIGWPGGATYYADSVKGRFTISRDNSKNTLYLQMNSLRAEDTAVYYCAKYGRNFDYWGQGTLVTVSS
[2] TAR2h-41 (other, anti-human TNFR1 dAb) EVQLLESGGGLVQPGGSLRLSCAASGFTFDKYQMGWVRQAPGKGLEWVSFIDSNGHHTYYADSVKGRFTISRDNSKNTLYLQMNSLRAEDTAVYYCAELDNLSITPFDYWGQGTLVTVSS
// select label with min value of measured HeLa IL-8 Cell Assay, Activity (IC50) from [ 1 , 2 ] Choose, then provide that item's label. 2
(2: 30 nM, 1: 300 nM)
